- Measurement notes: In vitro enzyme assay to detect hydrolysis of chlorophenol red-beta-D-[…] directly proportional to the number of Toxoplasma stably expressing beta-galactosidase
- Assay type: functional, organism-based, Toxoplasma gondii
- Design: scale not given: in the data most compounds retested in dose-response had high values
- Measurement parameters: 50 µM
In all, about 85,000 compounds went through this assay and about 440 (0.52%) showed an effect of 50% or more. Many of the other results were omitted from the sample, so strong results are more common in it than they were.
Recorded Percent Effect values for a group of molecules are listed next.
State just the number; it will be interpreted in %.

See these solved cases before continuing.
> print(dat)
                                   molecule  readout.number
1             CC(=O)Nc1nc(C(=O)Nc2nccs2)cs1           1.313
2     Cc1n[nH]/c(=N\C(=O)c2csc(NC3CC3)n2)s1           37.81
3  CC(C)C(N)C1(CO)CCC1 (configuration not stated)          -14.82
4            Cn1nccc1CCC(=O)NCC[C@@H]1CCCN1           2.008
5  CN(C1CCCCC1)S(=O)(=O)NC1CCCCNC1=O (configuration not stated)          -10.23

Measured Percent Effect of O=C(NCc1nccs1)c1csc(NC2CC2)n1 : 6.462

Measured Percent Effect of OCC1COCCN(Cc2ccc(C(F)(F)F)nc2)C1 (configuration not stated) : 17.84

Sourced from ChEMBL document CHEMBL3988442
